experiment: Metabolic stability in human hepatocytes assessed as half life measured upto 120 mins; format: ADME, cell-based, Hepatocyte
Known half-life of a selection of compounds

Compound	half-life
Fc1ccc([C@H]2c3ccccc3CCN2C2=NC[C@@]3(CCNC3)O2)cc1	> 120 min
Fc1ccc([C@H]2c3ccccc3CCN2C2=NC[C@@H](C3(F)CNC3)O2)cc1	> 120 min
Fc1ccc([C@H]2c3ccccc3CCN2C2=N[C@H](C3(F)CNC3)CO2)cc1	> 120 min
OCCN1CC[C@@]2(CN=C(N3CCc4ccccc4[C@@H]3c3ccc(F)cc3)O2)C1	> 120 min
Fc1ccc([C@H]2c3ccccc3CCN2C2=NC[C@@H](C3CN4CCC3CC4)O2)cc1 (stereo not given in full)	14.5 min

###

molecular target: Muscarinic acetylcholine receptor M3 (Homo sapiens, UniProt P20309); assay: Antagonist activity at M3 receptor (unknown origin)
Sequence (P20309 whole entry): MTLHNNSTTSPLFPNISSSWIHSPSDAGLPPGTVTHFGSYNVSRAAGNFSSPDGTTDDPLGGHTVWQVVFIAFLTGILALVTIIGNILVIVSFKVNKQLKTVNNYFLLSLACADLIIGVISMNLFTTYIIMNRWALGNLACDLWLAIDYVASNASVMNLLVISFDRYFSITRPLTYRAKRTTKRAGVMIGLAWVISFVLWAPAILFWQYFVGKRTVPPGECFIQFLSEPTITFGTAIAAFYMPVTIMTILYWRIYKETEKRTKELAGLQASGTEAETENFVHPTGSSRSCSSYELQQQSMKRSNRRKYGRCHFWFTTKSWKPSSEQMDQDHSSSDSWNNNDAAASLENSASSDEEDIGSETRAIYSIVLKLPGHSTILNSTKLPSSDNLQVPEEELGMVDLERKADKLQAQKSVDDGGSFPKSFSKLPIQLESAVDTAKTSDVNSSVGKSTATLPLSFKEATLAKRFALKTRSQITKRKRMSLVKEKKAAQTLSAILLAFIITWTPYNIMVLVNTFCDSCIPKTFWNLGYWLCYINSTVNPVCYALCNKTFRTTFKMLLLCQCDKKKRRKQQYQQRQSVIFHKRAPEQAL
pEC50: −log10 of the molar value.

Entry Smiles	Tested System	pEC50
O=C(O[C@H]1CN2CCC1CC2)N1CCc2ccccc2[C@@H]1c1ccccc1	Muscarinic acetylcholine receptor M3 (Homo sapiens, UniProt P20309)	7.62
O=C(O[C@H]1CN2CCC1CC2)N1CCc2ccccc2[C@@H]1c1ccc(F)cc1	Muscarinic acetylcholine receptor M3 (Homo sapiens, UniProt P20309)	4.77

###

assay: Protein binding in mouse assessed as unbound fraction; format: ADME
Measured Metric: fraction unbound

Molecule	Experimental Value
Fc1ccc([C@H]2c3ccccc3CCN2C2=NC[C@@H](C3(F)CNC3)O2)cc1	0.021
Fc1ccc([C@H]2c3ccccc3CCN2C2=NC[C@@H]3CNCC[C@@H]3O2)cc1	0.253
OCCN1CC[C@@]2(CN=C(N3CCc4ccccc4[C@@H]3c3ccc(F)cc3)O2)C1	0.091
Fc1ccc([C@H]2c3ccccc3CCN2C2=N[C@H](C3(F)CNC3)CO2)cc1	0.031
Fc1ccc([C@H]2c3ccccc3CCN2C2=NC[C@@H](C3CN4CCC3CC4)O2)cc1 (stereo not given in full)	0.056

###

test: Induction of progranulin secretion in mouse BV-2 cells; assay type: functional, cell-based
pEC50: −log10 of the molar value.
Threshold check on pEC50: at or above 6 gives Condition met, strictly below gives Condition not met.

Entry Smiles	Class Name
Fc1ccc([C@H]2c3ccccc3CCN2C2=NC[C@H](C3CNC3)O2)cc1	Condition met
Fc1ccc([C@H]2c3ccccc3CCN2C2=NC[C@H]3CNCC[C@@H]3O2)cc1	Condition not met
Fc1ccc([C@H]2c3ccccc3CCN2C2=NC[C@H]3CNCC[C@H]3O2)cc1	Condition met

###

test: Metabolic stability in mouse hepatocytes assessed as intrinsic clearance; assay type: ADME, cell-based, Hepatocyte

Compound	CLH
Fc1ccc([C@H]2c3ccccc3CCN2C2=NC[C@@]3(CCNC3)O2)cc1	< 68.2 µL/min/mg
Fc1ccc([C@H]2c3ccccc3CCN2C2=NC[C@@H](C3(F)CNC3)O2)cc1	< 68.2 µL/min/mg
Fc1ccc([C@H]2c3ccccc3CCN2C2=N[C@H](C3(F)CNC3)CO2)cc1	< 68.2 µL/min/mg
OCCN1CC[C@@]2(CN=C(N3CCc4ccccc4[C@@H]3c3ccc(F)cc3)O2)C1	22.25 µL/min/mg
Fc1ccc([C@H]2c3ccccc3CCN2C2=NC[C@@H](C3CN4CCC3CC4)O2)cc1 (stereo not given in full)	147.03 µL/min/mg

###

Catalogue of molecules with associated fCmax
test: Unbound Cmax in mouse at 10 mg/kg, po or 1 mg/kg, iv; format: ADME, organism-based; conditions: in vivo
Measured Metric: fCmax

Molecule	Measured Metric	Experimental Value
Fc1ccc([C@H]2c3ccccc3CCN2C2=NC[C@@H](C3(F)CNC3)O2)cc1	fCmax	11 nM
OCCN1CC[C@@]2(CN=C(N3CCc4ccccc4[C@@H]3c3ccc(F)cc3)O2)C1	fCmax	8 nM
Fc1ccc([C@H]2c3ccccc3CCN2C2=NC[C@@H](C3CN4CCC3CC4)O2)cc1 (some centres undefined)	fCmax	6 nM
Fc1ccc([C@H]2c3ccccc3CCN2C2=N[C@H](C3(F)CNC3)CO2)cc1	fCmax	62 nM

###

test: Protein binding in human assessed as unbound fraction; format: ADME
Label 1 when fraction unbound is strictly below 0.2; at or above that, label 0.

Molecule	Class Name
Fc1ccc([C@H]2c3ccccc3CCN2C2=N[C@H](C3(F)CNC3)CO2)cc1	1
Fc1ccc([C@H]2c3ccccc3CCN2C2=NC[C@@H](C3(F)CNC3)O2)cc1	1
Fc1ccc([C@H]2c3ccccc3CCN2C2=NC[C@@H](C3CN4CCC3CC4)O2)cc1 (stereo not given in full)	1
Fc1ccc([C@H]2c3ccccc3CCN2C2=NC[C@@H]3CNCC[C@@H]3O2)cc1	0
OCCN1CC[C@@]2(CN=C(N3CCc4ccccc4[C@@H]3c3ccc(F)cc3)O2)C1	1

###

Each record here notes measured Kp uu at 8 h.
assay: Unbound brain to plasma partition coefficient in mouse at 10 mg/kg, po or 1 mg/kg, iv after 8 hrs; type: ADME, organism-based; settings: read-out: K(p,uu,brain)

Compound	Kp uu at 8 h
Fc1ccc([C@H]2c3ccccc3CCN2C2=NC[C@@H](C3(F)CNC3)O2)cc1	8.33
OCCN1CC[C@@]2(CN=C(N3CCc4ccccc4[C@@H]3c3ccc(F)cc3)O2)C1	3.84
Fc1ccc([C@H]2c3ccccc3CCN2C2=NC[C@@H](C3CN4CCC3CC4)O2)cc1 (some centres undefined)	2.7
Fc1ccc([C@H]2c3ccccc3CCN2C2=N[C@H](C3(F)CNC3)CO2)cc1	2.91

###

Recorded pIC50 values (Voltage-gated inwardly rectifying potassium channel KCNH2 (Homo sapiens)) are given below.
pIC50: −log10 of the molar value.
Measured Metric: pIC50

Compound	Experimental Value
Fc1ccc([C@H]2c3ccccc3CCN2C2=NC[C@H](C3CN4CCC3CC4)O2)cc1 (some centres undefined)	6.17
Fc1ccc([C@H]2c3ccccc3CCN2C2=N[C@@H](C3(F)CNC3)CO2)cc1	5.00
Fc1ccc([C@H]2c3ccccc3CCN2C2=NC[C@@]3(CCNC3)O2)cc1	5.32
CN(C)[C@H]1C[C@@]2(CN=C(N3CCc4ccccc4[C@@H]3c3ccc(F)cc3)O2)C1	5.15
Fc1ccc([C@H]2c3ccccc3CCN2C2=NC[C@H]([C@@H]3CCNC3)O2)cc1	5.17
CN(C)[C@H]1CC[C@]2(CN=C(N3CCc4ccccc4[C@@H]3c3ccc(F)cc3)O2)C1	5.11
Fc1ccc([C@H]2c3ccccc3CCN2C2=NC[C@@H](C3(F)CNC3)O2)cc1	5.44
OCCN1CC[C@@]2(CN=C(N3CCc4ccccc4[C@@H]3c3ccc(F)cc3)O2)C1	5.36
Fc1ccc([C@H]2c3ccccc3CCN2C2=NC[C@@H](C3CNC3)O2)cc1	5.21
Fc1ccc([C@H]2c3ccccc3CCN2C2=NC[C@@H]3CNCC[C@H]3O2)cc1	5.51
Fc1ccc([C@H]2c3ccccc3CCN2C2=N[C@H](C3(F)CNC3)CO2)cc1	5.51
CN(C)[C@H]1CC[C@@]2(CN=C(N3CCc4ccccc4[C@@H]3c3ccc(F)cc3)O2)C1	5.44
CN1CC[C@]2(CN=C(N3CCc4ccccc4[C@@H]3c3ccc(F)cc3)O2)C1	6.29
Fc1ccc([C@H]2c3ccccc3CCN2C2=NC[C@H]3CNC[C@H]3O2)cc1	5.29
Fc1ccc([C@H]2c3ccccc3CCN2C2=NC[C@@H]([C@H]3CCNC3)O2)cc1	5.41
Fc1ccc([C@H]2c3ccccc3CCN2C2=NC[C@H](C3CNC3)O2)cc1	5.66
Fc1ccc([C@H]2c3ccccc3CCN2C2=NC[C@H](C3(F)CNC3)O2)cc1	4.96
OCCCN1CC[C@@]2(CN=C(N3CCc4ccccc4[C@@H]3c3ccc(F)cc3)O2)C1	5.32
Fc1ccc([C@H]2c3ccccc3CCN2C2=NC[C@@H](C3CN4CCC3CC4)O2)cc1 (some centres undefined)	6.16

###

Item-by-item account of half-life
experiment: Metabolic stability in mouse hepatocytes assessed as half life measured upto 120 mins; type: ADME, cell-based, Hepatocyte
Measured Metric: half-life (min)

Compound	Measured Metric	Comparison Operator	Experimental Value
Fc1ccc([C@H]2c3ccccc3CCN2C2=NC[C@@H](C3CN4CCC3CC4)O2)cc1 (stereo not given in full)	half-life	=	4.71
OCCN1CC[C@@]2(CN=C(N3CCc4ccccc4[C@@H]3c3ccc(F)cc3)O2)C1	half-life	=	31
Fc1ccc([C@H]2c3ccccc3CCN2C2=N[C@H](C3(F)CNC3)CO2)cc1	half-life	>	120
Fc1ccc([C@H]2c3ccccc3CCN2C2=NC[C@@]3(CCNC3)O2)cc1	half-life	>	120
Fc1ccc([C@H]2c3ccccc3CCN2C2=NC[C@@H](C3(F)CNC3)O2)cc1	half-life	>	120

###

molecular target: Voltage-gated inwardly rectifying potassium channel KCNH2 (Homo sapiens)
Sequence (Q12809 whole entry): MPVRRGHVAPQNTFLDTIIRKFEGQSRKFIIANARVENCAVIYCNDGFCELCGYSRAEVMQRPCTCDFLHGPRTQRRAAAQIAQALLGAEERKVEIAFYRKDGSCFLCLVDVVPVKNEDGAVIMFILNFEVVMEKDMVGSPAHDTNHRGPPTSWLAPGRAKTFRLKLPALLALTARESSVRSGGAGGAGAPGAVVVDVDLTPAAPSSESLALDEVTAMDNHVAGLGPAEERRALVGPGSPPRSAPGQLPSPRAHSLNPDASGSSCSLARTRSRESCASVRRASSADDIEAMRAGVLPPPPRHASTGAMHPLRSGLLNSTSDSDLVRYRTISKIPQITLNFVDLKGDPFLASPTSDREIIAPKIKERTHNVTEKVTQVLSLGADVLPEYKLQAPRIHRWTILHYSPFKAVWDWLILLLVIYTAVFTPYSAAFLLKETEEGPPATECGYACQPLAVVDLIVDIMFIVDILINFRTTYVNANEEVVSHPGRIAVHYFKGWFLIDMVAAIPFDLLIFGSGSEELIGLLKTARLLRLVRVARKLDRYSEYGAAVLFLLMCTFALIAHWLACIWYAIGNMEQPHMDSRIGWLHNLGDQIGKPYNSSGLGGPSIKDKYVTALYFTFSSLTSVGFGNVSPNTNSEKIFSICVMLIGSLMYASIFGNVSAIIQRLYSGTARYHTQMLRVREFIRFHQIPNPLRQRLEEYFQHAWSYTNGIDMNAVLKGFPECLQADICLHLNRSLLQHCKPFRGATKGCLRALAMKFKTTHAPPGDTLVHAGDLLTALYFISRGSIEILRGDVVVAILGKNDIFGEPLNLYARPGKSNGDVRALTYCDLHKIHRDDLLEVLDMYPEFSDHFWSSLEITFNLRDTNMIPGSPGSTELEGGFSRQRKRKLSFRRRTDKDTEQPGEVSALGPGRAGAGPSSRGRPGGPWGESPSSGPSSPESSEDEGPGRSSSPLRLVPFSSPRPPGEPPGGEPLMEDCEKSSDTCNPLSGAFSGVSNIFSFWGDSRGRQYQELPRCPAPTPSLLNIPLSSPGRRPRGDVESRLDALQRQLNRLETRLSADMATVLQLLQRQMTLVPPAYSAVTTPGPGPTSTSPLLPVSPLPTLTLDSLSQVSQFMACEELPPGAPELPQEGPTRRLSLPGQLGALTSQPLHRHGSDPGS
pIC50: −log10 of the molar value.

Entry Smiles	pIC50
O=C(O[C@H]1CN2CCC1CC2)N1CCc2ccccc2[C@@H]1c1ccc(F)cc1	6.47
CN1CC[C@@]2(CN=C(N3CCc4ccccc4[C@@H]3c3ccc(F)cc3)O2)C1	5.77
Fc1ccc([C@H]2c3ccccc3CCN2C2=NC[C@H]([C@H]3CCNC3)O2)cc1	5.64
Fc1ccc([C@H]2c3ccccc3CCN2C2=NC[C@@H]3CNCC[C@@H]3O2)cc1	4.68
N[C@@H]1CC[C@@]2(CN=C(N3CCc4ccccc4[C@@H]3c3ccc(F)cc3)O2)C1	5.06
Fc1ccc([C@H]2c3ccccc3CCN2C2=NC[C@@H]([C@@H]3CCNC3)O2)cc1	5.27
Fc1ccc([C@H]2c3ccccc3CCN2C2=N[C@H]3CNC[C@H]3CO2)cc1	5.48
